biological target: excitatory amino acid transporters (SLC1A6, EAAT4) (Rattus norvegicus); test: EAAT4 cis-inhibition of glutamate uptake in stably transfected HEK 293 cells; assay type: cell-based; details: Ki, inhibitor concentration range 0-10 μM
Sequence (O35921 whole entry): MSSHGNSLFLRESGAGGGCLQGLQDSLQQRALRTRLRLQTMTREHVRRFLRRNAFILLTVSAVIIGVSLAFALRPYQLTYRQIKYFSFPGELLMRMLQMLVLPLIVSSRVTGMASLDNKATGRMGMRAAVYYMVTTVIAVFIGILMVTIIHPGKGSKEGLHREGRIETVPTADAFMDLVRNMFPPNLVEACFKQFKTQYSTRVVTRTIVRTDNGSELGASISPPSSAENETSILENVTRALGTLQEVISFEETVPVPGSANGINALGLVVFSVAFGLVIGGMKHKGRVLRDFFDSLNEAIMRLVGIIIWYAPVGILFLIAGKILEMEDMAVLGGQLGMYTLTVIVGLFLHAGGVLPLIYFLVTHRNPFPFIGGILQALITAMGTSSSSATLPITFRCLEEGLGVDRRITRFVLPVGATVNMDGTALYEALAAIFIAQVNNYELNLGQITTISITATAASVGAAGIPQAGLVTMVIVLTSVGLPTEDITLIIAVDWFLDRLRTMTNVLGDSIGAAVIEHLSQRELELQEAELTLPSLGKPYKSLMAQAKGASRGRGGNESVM
METRIC: Ki
Kindly format the answer as number then unit.

COMPOUND | TGT | RESULT VALUE
N[C@H](CC(=O)O)C(=O)O [D-Aspartic acid] | excitatory amino acid transporters (SLC1A6, EAAT4) (Rattus norvegicus) | 8.72 µM

# context switch: different compound, same Ki
# input Please indicate Ki recorded for N[C@@H](CC(=O)O)C(=O)O [L-Aspartic acid]
# output 1.77 µM

----------
Molecular target: human apical sodium-dependent transporter (SLC10A2, ASBT) (Homo sapiens)
Sequence (Q12908 1-348): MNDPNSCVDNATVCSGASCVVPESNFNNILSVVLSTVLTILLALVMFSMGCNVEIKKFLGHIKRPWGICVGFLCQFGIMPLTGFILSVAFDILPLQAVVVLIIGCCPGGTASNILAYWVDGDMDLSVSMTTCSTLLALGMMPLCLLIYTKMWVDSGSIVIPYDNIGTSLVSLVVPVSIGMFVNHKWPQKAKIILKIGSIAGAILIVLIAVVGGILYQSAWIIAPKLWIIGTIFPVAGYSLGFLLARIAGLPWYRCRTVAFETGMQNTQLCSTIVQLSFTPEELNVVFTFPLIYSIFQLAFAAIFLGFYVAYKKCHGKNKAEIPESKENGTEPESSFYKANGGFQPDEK
Test: ASBT cis-inhibition of taurocholate uptake in ASBT-MDCK cells
Details: Ki, inhibitor concentration range 0-1000 μM; mean±S.E.
Where a name gives a salt, the structure may show the parent alone.
// log10(Ki) lookup, one value per entry
Form field - Quantity: Ki; Unit: µM; Scale: log10

Consider the reported log10(Ki) for these compounds:
COMPOUND | TGT | log10(Ki)
CN1CCCCC1CCN1c2ccccc2Sc2ccc([S+](C)[O-])cc21 (stereo not drawn) [Mesoridazine besylate] | human apical sodium-dependent transporter (SLC10A2, ASBT) (Homo sapiens) | 1.80
Cc1cccc(Nc2ccncc2S(=O)(=O)NC(=O)NC(C)C)c1 [torsemide] | human apical sodium-dependent transporter (SLC10A2, ASBT) (Homo sapiens) | 2.66
COc1ccc2c(c1)c(CC(=O)O)c(C)n2C(=O)c1ccc(Cl)cc1 | human apical sodium-dependent transporter (SLC10A2, ASBT) (Homo sapiens) | 1.94
CC(C(=O)O)c1cccc(C(=O)c2ccccc2)c1 (stereo not drawn) | human apical sodium-dependent transporter (SLC10A2, ASBT) (Homo sapiens) | 2.52
CCCCOc1cc(C(=O)NCCN(CC)CC)c2ccccc2n1 [Dibucaine hydrochloride, dibucaine hydrochloride] | human apical sodium-dependent transporter (SLC10A2, ASBT) (Homo sapiens) | 2.00

# input Please indicate log10(Ki) recorded for "CC(C)(C#N)c1cc(Cn2cncn2)cc(C(C)(C)C#N)c1"
# output 2.87
